Biological target: Alpha-1A adrenergic receptor (Homo sapiens, UniProt P35348); also: assay procedure not described here
Sequence (P35348 whole entry): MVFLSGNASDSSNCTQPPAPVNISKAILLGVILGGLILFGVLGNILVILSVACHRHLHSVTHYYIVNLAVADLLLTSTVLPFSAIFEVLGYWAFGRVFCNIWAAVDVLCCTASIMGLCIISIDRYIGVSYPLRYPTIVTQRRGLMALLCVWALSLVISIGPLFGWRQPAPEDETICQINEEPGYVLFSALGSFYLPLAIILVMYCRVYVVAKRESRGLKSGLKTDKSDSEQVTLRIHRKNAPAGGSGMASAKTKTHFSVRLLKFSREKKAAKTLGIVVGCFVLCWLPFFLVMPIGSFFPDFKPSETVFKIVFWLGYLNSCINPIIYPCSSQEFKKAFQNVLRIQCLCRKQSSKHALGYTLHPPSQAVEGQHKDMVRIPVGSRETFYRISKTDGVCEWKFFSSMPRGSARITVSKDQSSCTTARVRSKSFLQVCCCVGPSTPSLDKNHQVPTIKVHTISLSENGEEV
Format: functional, cell-based
So I've got a bunch of molecules here, and I need their AC50 values.

The following molecules have reported results that may help.
> print(dat)
                                   molecule      val
1  N=C(N)NCCCCCCC(=O)NC(O)C(=O)NCCCCNCCCN (stereo not given)  > 30 µM
2  CO[C@@]1(NC(=O)Cc2cccs2)C(=O)N2C(C(=O)O)=C(COC(N)=O)CS[C@@H]21  > 30 µM
3  N=C(N)c1ccc2cc(OC(=O)c3ccc(N=C(N)N)cc3)ccc2c1  > 30 µM
4  CN1[C@@H]2CC[C@H]1C[C@@H](OC(=O)c1c[nH]c3ccccc13)C2  > 30 µM

## Input Give the measured AC50 for COc1cc(OC)c(C(=O)CCCN2CCCC2)c(OC)c1
## Output > 30 µM

###

Here's what we have: AC50 numbers for 5-hydroxytryptamine receptor 2A (Homo sapiens, UniProt P28223).

Sample records with AC50:
> print(dat)
                           structure.string  measured.quantity        val
1  O=C(CCCN1CCC(n2c(O)nc3ccccc32)CC1)c1ccc(F)cc1               AC50  0.0035 µM
2              CCCN(CCC)CCc1cccc2c1CC(=O)N2               AC50    > 10 µM
3  O=C(Nc1nc(-c2cc(Cl)cs2)c(N2CCN(C3CCCCC3)CC2)s1)c1cnc(N2CCC(C(=O)O)CC2)c(Cl)c1               AC50    > 10 µM
4  CC(=O)c1ccc2c(c1)N(CCCN1CCC(CCO)CC1)c1ccccc1S2               AC50   0.012 µM

For each of the molecules below, state AC50.
1. C[C@]12CC[C@H](O)CC1=CC[C@@H]1[C@@H]2CC[C@]2(C)C(c3cccnc3)=CC[C@@H]12
2. CNC[C@H](O)c1cccc(O)c1
3. N#C[C@@H]1CCCN1C(=O)CNC12CC3CC(CC(O)(C3)C1)C2
4. O=C(O)c1ccccc1Nc1cccc(C(F)(F)F)c1
5. CC(=O)OCC[N+](C)(C)C

## Output
1: > 10 µM; 2: > 10 µM; 3: > 10 µM; 4: 0.0771 µM; 5: > 10 µM

###

A set of molecules tested on Delta-type opioid receptor (Homo sapiens), with measured AC50:

Examples from the recorded data:
> print(dat)
                                   molecule                               target.desc      val
1  CCCCCCNC(=O)n1cc(F)c(=O)[nH]c1=O [CARMOFUR]  Delta-type opioid receptor (Homo sapiens)  > 30 µM
2  C#C[C@]1(O)CC[C@H]2[C@@H]3CCC4=CC(=O)CCC4=C3C=C[C@@]21CC [GESTRINONE]  Delta-type opioid receptor (Homo sapiens)  > 30 µM
3  CC(=O)c1ccc2c(c1)N(CCCN1CCC(CCO)CC1)c1ccccc1S2 [PIPERACETAZINE]  Delta-type opioid receptor (Homo sapiens)  > 30 µM
4  CC(C)=CCOc1ccc(/C=C/C(=O)c2ccc(OCC=C(C)C)cc2OCC(=O)O)cc1 [SOFALCONE]  Delta-type opioid receptor (Homo sapiens)    26 µM
5  COc1ccc(C(CN(C)C)C2(O)CCCCC2)cc1 (centres undefined) [VENLAFAXINE]  Delta-type opioid receptor (Homo sapiens)  > 30 µM

# batch: return AC50 for each of the 2 molecules below
1. CCN(CC)CC(=O)Oc1ccc(NC(C)=O)cc1 [PROPACETAMOL]
2. CO/N=C(\C(=O)N[C@@H]1C(=O)N2C(C(=O)[O-])=C(C[n+]3cccc4c3CCC4)CS[C@H]12)c1csc(N)n1 [CEFPIROME]

## Output
["> 30 µM", "> 30 µM"]

Look up AC50 for the entries below, preserving their order.
1. CCCCNc1ccc(C(=O)OCCN(C)C)cc1 [TETRACAINE]
2. CC(C)N(CCCCOCC(=O)NS(C)(=O)=O)c1cnc(-c2ccccc2)c(-c2ccccc2)n1 [SELEXIPAG]

## Output
["> 10 µM", "25 µM"]
